Source: PubChem BioAssay AID248

- System: L1210 leukemia ip in BDF1 mice, survival T/C
- Test: NCI In Vivo Anticancer Drug Screen. Data for tumor model L1210 Leukemia (intraperitoneal) in B6D2F1 (BDF1) mice
- Recorded Conditions: endpoint: mean survival time; dose: 400.0 mg/kg/injection; schedule: Q04DX003 (ip); vehicle: saline with Tween-80; higher = longer survival
Toxic doses and inconclusive results are not listed. Square brackets hold non-standard residues; d marks the D form. Peptide text beside a SMILES is read from it. * marks the point of attachment. ξ: configuration not given here. ξW = NC(Cc1c[nH]c2ccccc12)C(=O)O; Cbz = O=C(OCc1ccccc1)*
Record form. Attribute: T/C. Fill in for each entry.

A selection of reference data follows.
Cc1c(Cl)cccc1NC(=O)NCCc1ccccc1: 101 % of control
O=C(COc1ccc(Cl)c(Cl)c1)NCc1ccc[n+](Cc2ccc([N+](=O)[O-])cc2)c1: 88 % of control
CC(=O)c1ccc(C(=O)NCCCc2c(C)nc(N)[nH]c2=O)cc1: 90 % of control
Nc1c(C(=O)O)cccc1C(=O)O: 96 % of control
Cc1ccccc1C1c2ccccc2C(=O)c2cccc(C)c21 (configuration not stated): 94 % of control
Cc1ccc(C(=O)O)cc1S(=O)(=O)Cl: 92 % of control
OCc1ccc(Cl)cc1Cl: 102 % of control
O=C(Nc1ccc(Cl)cc1[N+](=O)[O-])Oc1ccccc1C(=O)Nc1ccccc1: 93 % of control
COC(=O)C(Cc1c[nH]c2ccccc12)NC(=O)CNC(=O)CNC(=O)OCc1ccccc1 (stereo not drawn) (Cbz-Gly-Gly-[ξW]-OMe): 100 % of control
C(=Nc1ccccc1)c1ccc[nH]1: 96 % of control

Go through the list and state T/C for each entry.
1. Cc1ccc(C(=O)CCC(=O)O)c(C)c1
2. NC(=O)NC1CCCCCC1

["98 % of control", "91 % of control"]

###

- System: L1210 leukemia ip in BDF1 mice, survival T/C
- Test: NCI In Vivo Anticancer Drug Screen. Data for tumor model L1210 Leukemia (intraperitoneal) in B6D2F1 (BDF1) mice
- Recorded Conditions: endpoint: mean survival time; dose: 100.0 mg/kg/injection; schedule: Q01DX001 (ip); vehicle: saline with Tween-80; higher = longer survival
Toxic doses and inconclusive results are not listed.
Record form. Attribute: T/C. Fill in for each entry.

CCOC(=O)Nc1cc2c(c(NC(=O)OCC)n1)N=C(C)CN2 (tested in a mixture with another compound): 95 % of control

Go through the list and state T/C for each entry.
1. CCCCCCCCC1CCC2C3CCC4CC(C(=O)O)C(C(=O)O)CC4(C)C3CCC12C (centres undefined)
2. OC(CN1CCCCC1)c1ccc(/C=C/c2ccc(Cl)cc2)cc1 (centres undefined)

1. 86 % of control
2. 88 % of control

Go through the list and state T/C for each entry.
1. CC(C)C(=O)CCC1CCCCC1
2. O=C(CSc1cc(Cl)c(Cl)cc1Cl)Nc1cccc(Cl)c1
3. Clc1ccc(C2=Nc3c(Cl)ncnc3SC2)cc1
4. CCCN(CCC)C(=O)SCC
5. c1ccc(-n2ncc3ccccc32)cc1

["100 % of control", "95 % of control", "106 % of control", "101 % of control", "100 % of control"]

Look up and report measured T/C for this entry: `COC(=O)C(NC(=O)COc1ccccc1[N+](=O)[O-])C(=O)OC`
100 % of control

###

Record form. Attribute: T/C. Fill in for each entry.
- Test system: L1210 leukemia ip in BDF1 mice, survival T/C
- Test: NCI In Vivo Anticancer Drug Screen. Data for tumor model L1210 Leukemia (intraperitoneal) in B6D2F1 (BDF1) mice
- Recorded Conditions: endpoint: mean survival time; dose: 25.0 mg/kg/injection; schedule: Q01DX001 (ip); vehicle: Klucel (hydroxypropylcellulose) (HPC); higher = longer survival
Inconclusive results and toxic doses are left out.

A selection of reference data follows.
NC(=O)c1ccccc1N=NN(CCF)CCF: 113 % of control
c1ccc2c(c1)CC1CCCCN1C2 (stereo not given): 98 % of control
COc1ccc(C(OCC2OC(n3nnc4c(=O)[nH]c(N)nc43)CC2OC(C)=O)(c2ccccc2)c2ccc(OC)cc2)cc1 (stereo not given): 93 % of control
Nc1cccc(-c2nc3[nH]ncc3c(=O)[nH]2)c1: 100 % of control

Look up and report measured T/C for this entry: `O=C(OCc1ccccc1CN1CCCC1)c1ccccc1`
98 % of control

###

- Tested on: L1210 leukemia ip in BDF1 mice, survival T/C
- Test: NCI In Vivo Anticancer Drug Screen. Data for tumor model L1210 Leukemia (intraperitoneal) in B6D2F1 (BDF1) mice
- Recorded Conditions: endpoint: mean survival time; dose: 75.0 mg/kg/injection; schedule: Q04DX003 (ip); vehicle: saline; higher = longer survival
Inconclusive results and toxic doses are left out.
Observation Type: T/C

O=C(O)C1=CCCc2ccc3ccccc3c21: 100 % of control

Go through the list and state T/C for each entry.
1. Cc1ccc(-n2c(=O)[nH]c3c(c2=O)C(c2ccc(Cl)cc2)C(C)(C)O3)cc1 (stereo not given)
2. CN(O)C(N)=O
3. c1ccc2c[n+](CC[n+]3ccc4ccccc4c3)ccc2c1
4. Nc1ccccc1Sc1ccc(Br)cc1[N+](=O)[O-]

97 % of control
108 % of control
98 % of control
102 % of control

###

- System: L1210 leukemia ip in BDF1 mice, survival T/C
- Test: NCI In Vivo Anticancer Drug Screen. Data for tumor model L1210 Leukemia (intraperitoneal) in B6D2F1 (BDF1) mice
- Recorded Conditions: endpoint: mean survival time; dose: 50.0 mg/kg/injection; schedule: Q01DX009 (ip); vehicle: saline; higher = longer survival
Toxic doses and inconclusive results are not listed.
Observation Type: T/C

A selection of reference data follows.
CCCCN1CC1(C)C (centres undefined): 105 % of control
C[N+]1(CCC(c2ccccc2)c2ccccc2)CCCCC1: 96 % of control
COC1C2CCC1[N+](C)(C)CC2 (centres undefined): 105 % of control
O=C1/C(=C/c2ccco2)CC2CCCCC12 (centres undefined): 95 % of control
[N-]=[N+]=Nc1ccc2[nH]c3ccccc3c(=O)c2c1: 90 % of control
CCCCCCCCCCCCOP(N)(=O)OCCCCCCCCCCCC: 90 % of control
C=CCCC[P+](c1ccccc1)(c1ccccc1)c1ccccc1: 101 % of control
C/C(=C\CN1C(=O)c2ccccc2C1=O)CCC(=O)O: 101 % of control

Go through the list and state T/C for each entry.
1. NCCOP(=O)(O)O
2. CCN(CC)C(=O)C1CN2CCc3cc(OC)c(OC)cc3C2CC1O (centres undefined)
3. CC(C)NNC(=O)C(C)N (centres undefined)
4. C[N+]1(C)CCCCC1
5. S=c1[nH][nH]c(=S)s1
6. Cc1c(-c2ccccc2)cc(O)cc1-c1ccccc1

1. 95 % of control
2. 105 % of control
3. 92 % of control
4. 97 % of control
5. 97 % of control
6. 98 % of control

###

- Tested on: L1210 leukemia ip in BDF1 mice, survival T/C
- Test: NCI In Vivo Anticancer Drug Screen. Data for tumor model L1210 Leukemia (intraperitoneal) in B6D2F1 (BDF1) mice
- Recorded Conditions: endpoint: mean survival time; dose: 200.0 mg/kg/injection; schedule: Q04DX003 (ip); vehicle: acetone; higher = longer survival
Inconclusive results and toxic doses are left out.
Record form. Attribute: T/C. Fill in for each entry.

Nc1ccc2c(c1)C(=O)c1c(F)cccc1-2: 94 % of control
CC1(c2ccccc2)NC(=O)N(CCC#N)C1=O (centres undefined): 90 % of control
O=C(O)CN1C(=O)NC(C2CC2)(C2CC2)C1=O: 96 % of control

Look up and report measured T/C for this entry: Cc1cc(C)c(S(=O)(=O)CC(Cl)c2ccccc2)c(C)c1 (centres undefined)
97 % of control

###

- Test system: L1210 leukemia ip in BDF1 mice, survival T/C
- Test: NCI In Vivo Anticancer Drug Screen. Data for tumor model L1210 Leukemia (intraperitoneal) in B6D2F1 (BDF1) mice
- Recorded Conditions: endpoint: mean survival time; dose: 100.0 mg/kg/injection; schedule: Q01DX009 (ip); vehicle: saline with Tween-80; higher = longer survival
Inconclusive results and toxic doses are left out.
Record form. Attribute: T/C. Fill in for each entry.

A selection of reference data follows.
O=C(Nc1ncc(S(=O)(=O)c2ccc([N+](=O)[O-])cc2)s1)C(F)(F)F: 94 % of control
CCCCCCCS(=O)(=O)CCCCCCC: 94 % of control

Go through the list and state T/C for each entry.
1. CC(=O)c1ccc(N=C2C=CC(=O)O2)cc1
2. OCc1cc(Cl)cc(Cl)c1O
3. O=[N+]([O-])c1cccc(C(O)C=C(C(F)(F)F)C(F)(F)F)c1 (stereo not drawn)
4. CC(C(=O)c1ccccc1)c1ccccc1 (stereo not drawn)
5. CCNc1nc(N)nc2n[nH]nc12
6. Cc1ccc(/C=N\N=C\c2ccc(C)cc2)cc1
7. Cc1nc(N2CCCCC2)[nH]c(=O)c1CN(C)N=O
8. O=C(O)C1=CC2C3C=CC(C(=O)O)(C3)C2C1 (stereo not drawn)

1. 104 % of control
2. 97 % of control
3. 98 % of control
4. 87 % of control
5. 89 % of control
6. 96 % of control
7. 94 % of control
8. 96 % of control

Go through the list and state T/C for each entry.
1. CCOC(=O)C(CC(=O)c1ccccc1)C(C)=O (stereo not drawn)
2. CCCCC(C=O)(C=C=C(C)C)CC (stereo not drawn)
3. O=C(O)CC(NC(=O)OCc1ccccc1)C(=O)OCc1ccccc1 (stereo not drawn)

1. 93 % of control
2. 89 % of control
3. 107 % of control
